Cited source for all entries: patent US20260125382A1

Target: CDK9 (Homo sapiens)
Construct: endogenous in cells; host or cells: MDA-MB-231
Experiment: CDK protein degradation activity (Western blotting), CDK9
Format: cell-based
Settings: MDA-MB-231 cells, 10 μM, 16 hours, Western blot
Protocol: In order to evaluate the CDK protein degradation activity of the compounds according to the present invention, the following experiment was conducted. MDA-MB-231 cells were seeded at 5×10^5 cells per well in a 6-well plate. The next day, the compounds were treated in each well to achieve final concentrations of 100 nM, 1 μM, and 10 μM. […] Cell lysates were quantified and separated by size using sodium dodecyl sulfate-polyacrylamide gel electrophoresis (SDS-PAGE). […]
Readout label: Enzyme degradation CDK9 (% remaining) @ 10 μM (%)

Compound	Assay system	Readout value
O=C1CC[C@H](N2C(=O)c3ccc(N4CC(C(=O)N5CCN(CC6CCN(c7ccc(Nc8ncnc9c8ncn9C8CC(NC(=O)Cc9ccccc9)C8)cc7)CC6)CC5)C4)cc3C2=O)C(=O)N1 (some centres unmarked)	CDK9 (Homo sapiens)	0
O=C1CC[C@H](N2C(=O)c3cccc(NCC(=O)N4CCN(CCCN5CCN(c6ccc(Nc7ncnc8c7ncn8[C@H]7C[C@@H](NC(=O)Cc8ccccc8)C7)cc6)CC5)CC4)c3C2=O)C(=O)N1	CDK9 (Homo sapiens)	0

----------
molecular target: CDK9 (Homo sapiens, UniProt P50750); construct: endogenous in cells; host or cells: MDA-MB-231; experiment: CDK protein degradation activity (Western blotting), CDK9; assay type: cell-based; settings: MDA-MB-231 cells, 0.1 μM, 16 hours, Western blot
Sequence (P50750 whole entry): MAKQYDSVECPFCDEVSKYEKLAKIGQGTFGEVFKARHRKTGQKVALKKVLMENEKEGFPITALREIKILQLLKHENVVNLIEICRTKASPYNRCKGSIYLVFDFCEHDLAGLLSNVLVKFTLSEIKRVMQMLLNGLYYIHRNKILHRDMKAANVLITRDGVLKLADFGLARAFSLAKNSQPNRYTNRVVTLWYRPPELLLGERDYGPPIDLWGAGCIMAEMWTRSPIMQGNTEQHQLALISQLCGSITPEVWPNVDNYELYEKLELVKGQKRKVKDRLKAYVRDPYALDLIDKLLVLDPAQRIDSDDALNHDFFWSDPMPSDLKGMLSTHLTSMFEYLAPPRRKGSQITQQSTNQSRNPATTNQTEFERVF
Readout label: Enzyme degradation CDK9 (% remaining) @ 0.1 μM

Compound	Readout value
O=C1CC[C@H](N2C(=O)c3cccc(NCC(=O)N4CCC(CN5CCC(CNc6ncnc7c6ncn7C6CC(NC(=O)Cc7ccccc7)C6)CC5)CC4)c3C2=O)C(=O)N1 (stereo partly shown)	0/0/0%
O=C1CCC(N2C(=O)c3ccc(N4CCC(CN5CCC(CCNc6ncnc7c6ncn7[C@H]6C[C@@H](NC(=O)c7c(Cl)cccc7Cl)C6)CC5)CC4)cc3C2=O)C(=O)N1 (stereo partly shown)	20/20/20%
Cc1cccc(C(=O)N[C@H]2C[C@@H](n3cnc4c(NCc5ccc(OCC6CCN(C(=O)CNc7cccc8c7C(=O)N([C@H]7CCC(=O)NC7=O)C8=O)CC6)cc5)ncnc43)C2)n1	0/0/0%

Check the records and state Enzyme degradation CDK9 (% remaining) @ 0.1 μM for O=C1CC[C@H](N2C(=O)c3cc(F)c(N4CCC(C(=O)N5CCC6(CC5)CC(N5CCN(c7ccc(Nc8ncnc9c8ncn9C8CC(NC(=O)c9c(Cl)cccc9Cl)C8)cc7)CC5)C6)CC4)cc3C2=O)C(=O)N1 (stereo partly shown)
0/0/0%

Check the records and state Enzyme degradation CDK9 (% remaining) @ 0.1 μM for "Cc1cccc(C(=O)N[C@H]2C[C@@H](n3cnc4c(NCc5ccc(OCC6CCN(C(=O)COc7ccc8c(c7)C(=O)N([C@H]7CCC(=O)NC7=O)C8=O)CC6)cc5)ncnc43)C2)n1"
70%

Check the records and state Enzyme degradation CDK9 (% remaining) @ 0.1 μM for O=C1CC[C@H](n2nnc3ccc(N4CCN(CC5CCN(c6ccc(Nc7ncnc8c7ncn8C7CC(NC(=O)c8c(Cl)cccc8Cl)C7)cc6)CC5)CC4)cc3c2=O)C(=O)N1 (stereo partly shown)
0/0/0%

Check the records and state Enzyme degradation CDK9 (% remaining) @ 0.1 μM for "O=C1CC[C@H](N2C(=O)c3cc(F)c(N4CCC(C(=O)N5CCN(CC6CCN(c7ccc(Nc8ncnc9c8ncn9[C@H]8C[C@@H](NC(=O)c9c(Cl)cccc9Cl)C8)cc7)CC6)CC5)CC4)cc3C2=O)C(=O)N1"
0/0/0%

Check the records and state Enzyme degradation CDK9 (% remaining) @ 0.1 μM for "O=C1CC[C@H](N2C(=O)c3cccc(NCC(=O)N4CCC(CCCN5CCN(c6ccc(Nc7ncnc8c7ncn8[C@H]7C[C@@H](NC(=O)Cc8ccccc8)C7)cc6)CC5)CC4)c3C2=O)C(=O)N1"
0/0/0%

Check the records and state Enzyme degradation CDK9 (% remaining) @ 0.1 μM for Cc1cccc(C(=O)NC2CC(n3cnc4c(NCc5ccc(OCC6CCN(c7ccc8c(c7)C(=O)N([C@H]7CCC(=O)NC7=O)C8=O)CC6)cc5)ncnc43)C2)n1 (stereo partly shown)
90%

Check the records and state Enzyme degradation CDK9 (% remaining) @ 0.1 μM for O=C1CC[C@H](N2C(=O)c3cc(F)c(N4CCC(C(=O)N5CCC(CN6CCN(c7ccc(Nc8ncnc9c8ncn9C8CC(NC(=O)c9cccc(F)n9)C8)cc7)CC6)CC5)CC4)cc3C2=O)C(=O)N1 (stereo partly shown)
0/0/0%
